Give Papp A→B for every item shown.
Assay: Permeability across apical to basolateral side in MDCK cells
Format: ADME, cell-based, Canis lupus familiaris
Settings: dog, read-out: permeability
Unit ×10⁻⁶ cm/s implied. Number only.

Ask: # return recorded Papp A→B for input C[C@@H](Nc1nc(-c2cccc(C(=O)O)c2)cnc1N)c1ccccc1
Reply: 9.6

Ask: Look up and state reported Papp A→B for Cc1ccc(C(=O)O)cc1-c1cnc(N)c(N[C@H](C)c2ccc(Cl)cc2)n1
Reply: 12.1

* * *

Biological target: L-lactate dehydrogenase A chain (Homo sapiens, UniProt P00338)
Assay: Binding affinity to human recombinant carboxy-terminal his-tagged LDHA (1 to 331) expressed in Escherichia coli by surface plasmon resonance analysis in presence of NADH
Record form. Attribute: pKd. Fill in for each entry.
A value of pKd is the negative decimal logarithm of a concentration given in moles per litre.

Ask: // Input: Nc1ncc(-c2cccc(C(=O)O)c2)nc1NCC1CCCC1 . Output its pKd only.
Reply: 4.74

Ask: Supply recorded pKd for Cc1ccc(-c2cnc(N)c(N[C@H](C)c3ccccc3)n2)cc1C(=O)O here.
Reply: 4.54

Ask: State its pKd: C[C@@H](Nc1cc(-c2cccc(C(=O)O)c2)cnc1N)c1ccccc1
Reply: 4.54

Ask: Fill in reported pKd for this entry: C[C@@H](Nc1nc(-c2cccc(C(=O)O)c2)cnc1N)C1CCCCC1
Reply: 5.15

Ask: Identify the reported pKd for the following entry. C[C@@H](Nc1nc(-c2cccc(C(=O)O)c2)cnc1N)c1ccccc1
Reply: 5.15

Just for reference, ChEMBL document CHEMBL2429790 is where these values come from.
